Reference source for all entries: patent US20250136687A1

As shown below, each of these binders has a reported pEC50 value.
TARGET ENTITY: T1, monkey CD3ε protein (monkey, UniProt Q95LI5 22-117, limits assumed)
T1 sequence (looked up): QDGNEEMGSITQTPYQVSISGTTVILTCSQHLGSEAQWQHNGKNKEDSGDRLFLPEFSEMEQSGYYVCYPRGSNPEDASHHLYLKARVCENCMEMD
ASSAY: ELISA, coated antigen
pEC50: −log10 of the molar value.
OBSERVATION TYPE: pEC50

INSERT INTO results (binder, quantitative_result) VALUES
  ('8-18.1-H1-L2 humanized antibody (antibody, human IgG1, kappa, V domains shown) VH: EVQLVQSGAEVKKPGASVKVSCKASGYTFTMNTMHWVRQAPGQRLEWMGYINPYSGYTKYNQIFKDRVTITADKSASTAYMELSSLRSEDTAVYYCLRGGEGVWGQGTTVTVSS VL: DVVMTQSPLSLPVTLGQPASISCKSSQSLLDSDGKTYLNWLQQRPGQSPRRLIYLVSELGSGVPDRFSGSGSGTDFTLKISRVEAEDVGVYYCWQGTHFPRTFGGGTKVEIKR', 11.32),
  ('7-35.6-H2-L3 humanized antibody (antibody, human IgG1, lambda, V domains shown) VH: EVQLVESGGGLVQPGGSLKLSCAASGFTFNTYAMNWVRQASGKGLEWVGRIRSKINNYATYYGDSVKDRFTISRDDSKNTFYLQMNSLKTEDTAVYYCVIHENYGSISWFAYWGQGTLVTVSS VL: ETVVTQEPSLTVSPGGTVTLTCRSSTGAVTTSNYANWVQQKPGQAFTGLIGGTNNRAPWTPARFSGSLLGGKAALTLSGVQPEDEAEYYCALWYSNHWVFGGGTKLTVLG', 11.07),
  ('5-40.21-H3-L1 humanized antibody (antibody, human IgG1, kappa, V domains shown) VH: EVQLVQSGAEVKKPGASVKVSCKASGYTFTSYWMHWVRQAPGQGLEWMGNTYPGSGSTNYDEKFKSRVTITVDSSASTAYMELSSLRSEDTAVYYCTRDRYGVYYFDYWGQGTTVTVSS VL: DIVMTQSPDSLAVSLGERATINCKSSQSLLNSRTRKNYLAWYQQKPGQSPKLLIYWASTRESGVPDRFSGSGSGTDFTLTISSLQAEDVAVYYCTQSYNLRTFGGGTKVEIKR', 12.33);
